assay: NCI Yeast Anticancer Drug Screen. Data for the sgs1 mgt1 strain (AID 161);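 note: 0% = growth of cultures given vehicle only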; settings: S. cerevisiae sgs1 mgt1 strain, at 50.0 µM (retest, dose inferred, filed as 5.0)
The panel holds about 79,000 compounds, 15% with a hit somewhere; the sample as a whole holds those more often. Active and inactive are the calls of the source. Cut-off read from the data, not from the text of the source: active = growth inhibition above about 70%; inactive = the rest.
Hi! Could you answer with just one of these? active, inactive

Previously resolved entries follow.
CCOC(=O)C(NC(C)=O)C(=O)c1ccccc1 (stereo not given) : inactive
CCCCCCCCCCCC[n+]1ccccc1 (tested in a mixture with another compound) : active
Nc1cccc2cccc([N+](=O)[O-])c12 : inactive
O=C(O)c1cc2c(s1)C(=O)c1sccc1C2=O : inactive
CN1CCC(CN2c3ccccc3Sc3ccccc32)C1 (stereo not given) : inactive

Query: Field: outcome | Entry: C/C(=N\Nc1ccc(Cl)cc1)C(=O)O
Response: active

Query: Hi, do you know how COc1ccc(/C=C2/C(=O)ON=C2C)cc1 came out in this test?
Response: inactive

Query: Dear colleague, could you share the recorded outcome for O=C1C=Cc2ccccc2/C1=C/c1nc(-c2ccccc2)oc1O when you have a moment?
Response: active

Query: For this molecule, state the assay outcome: Cc1ccc2c(c1)sc(-c1ccc(N(C)C)cc1)[n+]2C
Response: active

Query: Tell me the assay call for O=C1c2ccccc2-c2ccc(O)cc21 please.
Response: active

---

test: NCI Yeast Anticancer Drug Screen. Data for the mlh1 rad18 strain (AID 175); conditions: S. cerevisiae mlh1 rad18 strain growth inhibition; at 50.0 µM
The panel holds about 79,000 compounds, 15% with a hit somewhere; the sample as a whole holds those more often. The source made the active and inactive calls. No stated cut-off is given here; in the data, active means growth inhibition above about 70%; inactive means the rest.
The categories you may choose from are active, inactive

Completed entries (count: 5):
CCN(CC)c1ccc(/C=C\C(=O)c2ccc(NC(C)=O)cc2)cc1 : inactive
CCOC(=O)NC(/C=C/c1ccccc1)NC(=O)OCC : active
CN(Cc1ccccc1)c1ccc(SC#N)cc1 : active
CCNc1nnnn1CC : inactive
C=CCO/N=C/c1cc(NC(=S)c2ccoc2C)ccc1Cl : active

Now for another entry.
Query: Recorded test call requested for Cc1ccc(Nc2n[nH]c(=S)s2)cc1F
Response: active

---

Assay: NCI Yeast Anticancer Drug Screen. Data for the sgs1 mgt1 strain (AID 161);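 note: 0% = growth of cultures given vehicle only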
Settings: S. cerevisiae sgs1 mgt1 strain, at 50.0 µM (retest, dose inferred, filed as 5.0)
Protocol: Growth inhibition of yeast strains with defined genetic alterations is measured as a screen for potential anti-cancer activity. Selected strains with alterations in DNA damage repair or cell cycle control were exposed to compounds and growth inhibition was measured relative to vehicle treated controls. The strain used in this assay is sgs1 mgt1
This is part of a sample that, as a whole, favours compounds with a hit. Of some 79,000 tested, about 15% had one in any assay. Calls of active or inactive are those of the source. No stated cut-off is given here; in the data, active means growth inhibition above about 70%; inactive means the rest.
Select the matching outcome among active, inactive

O=C(NNc1ccccc1)OCc1ccccc1 : active
CC1=C(C2=C(C)C(=O)C(=O)c3cc(C)ccc32)c2ccc(C)cc2C(=O)C1=O : active
Oc1ccc(Nc2ccc3ccccc3c2)cc1 : active

From here, focus on the item given below.
Query: State the result this test recorded for COC(=O)[C@]1(C)CCC[C@]2(C)c3ccc(C(C)C)cc3C(=O)[C@@H](Br)[C@@H]12 .
Response: inactive

---

Measured growth inhibition by item
assay: NCI Yeast Anticancer Drug Screen. Data for the sgs1 mgt1 strain (AID 161);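 note: 0% = growth of cultures given vehicle only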; details: S. cerevisiae sgs1 mgt1 strain, at 50.0 µM (retest, dose inferred, filed as 5.0), active compounds read high
The panel holds about 79,000 compounds, 15% with a hit somewhere; the sample as a whole holds those more often.
Report only the number, with the unit % understood.

Here is how some compounds turned out for growth inhibition.
N#C/C(=N\Nc1ccc(Cl)cc1)C(=O)C1CC1 : 70
CC(CSc1n[nH]c(=S)s1)c1ccccc1 (stereo not drawn) : 96
CN(C)CCN(C)CC(C)(C)C(=O)/C=C/c1ccc(Cl)c(Cl)c1 : 99

Next item in the queue.
Query: Look up and report measured growth inhibition for this entry: CCN1CCCC(Nc2cc(C)nc(/N=C(/N)Nc3ccc(Cl)c(Cl)c3)n2)C1 (stereo not drawn)
Response: 97

---

test: NCI Yeast Anticancer Drug Screen. Data for the mlh1 rad18 strain (AID 175); settings: S. cerevisiae mlh1 rad18 strain growth inhibition; at 50.0 µM (retest, dose inferred, filed as 5.0)
About 79,000 compounds went through this panel and 15% of them were active in at least one assay; those are over-represented in the sample as a whole. The source made the active and inactive calls. Cut-off read from the data, not from the text of the source: active = growth inhibition above about 70%; inactive = the rest.
Please answer using one outcome listed in active, inactive

O=C(Cc1nc2cc(Cl)c(Cl)cc2nc1CC(=O)c1cccnc1)c1cccnc1 : active
Cc1ccc2[nH]cc(CC(=O)O)c2c1 : active
COc1ccc2c(c1)C(OC)C1c3c(cc4c(c3-2)OCO4)CCN1C (stereo not given) : inactive
CC(=O)Oc1c(Br)cc(Br)cc1C(OC(C)=O)OC(C)=O : active

Query: Fill in: this test's call for CC1=CC[C@@H]2[C@@H](CC[C@@]2(C)O)C(C)(C)[C@H]1CC[C@@H]1[C@@]2(C)CC[C@@H](O)C(C)(C)O[C@@H]2CC[C@]1(C)O is ___
Response: inactive

---

assay: NCI Yeast Anticancer Drug Screen. Data for the bub3 strain (AID 167); conditions: S. cerevisiae bub3 mutant strain, at 50.0 µM, active compounds read high
This is part of a sample that, as a whole, favours compounds with a hit. Of some 79,000 tested, about 15% had one in any assay.
assay readout: growth inhibition (%)
Quick note: give the figure in %, leave out the unit.

Example compounds with recorded growth inhibition:
O=C1c2ccccc2Cc2cccc(Cl)c21 : 13.8
CCCCCCCCCCCCCCCc1ccc(C(=O)C[n+]2ccccc2)cc1 : 85.2

Query: Determine its reported growth inhibition: Cc1cc2nc(CC(=O)c3ccncc3)c(=O)[nH]c2cc1C
Response: 7.45

Query: Query growth inhibition for O=C(/C(Cl)=N/O)c1ccc(-c2ccccc2)cc1
Response: 99.7

Query: Give the value of growth inhibition reported for the following: COC(=O)c1ccc(=O)c2nc3/c(=C/O)c(O)cc(=O)c3[nH]c12
Response: 89.5

Query: Identify the reported growth inhibition for the following entry. O=C(Nc1ccc(Cl)c(Cl)c1)Nc1ccccc1O
Response: 64

Query: Supply recorded growth inhibition for O=[N+]([O-])c1ccc(N2CCN(Cc3ccccc3)CC2)c2c1no[n+]2[O-] here.
Response: 90

---

test: NCI Yeast Anticancer Drug Screen. Data for the cln2 rad14 strain (AID 165);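 note: 0% = growth equal to vehicle treated cultures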; conditions: S. cerevisiae cln2 rad14 strain, at 5.0 µM (retest, dose inferred, filed as 0.5), active compounds read high
Compounds without any hit were thinned out: in the full panel of roughly 79,000, 15% have a hit. *1 amine or outer side, *2 acyl side, *3 side chain or, on linkers, in order; H or OH if unused. Where a SMILES comes first, the peptide text is derived from it. Bridges are numbered along the chain shown (N, C = ends). Roman numbers before positions name the chains, in order. [ ]: non-standard residue; d: D form. Actinocin(1to9) = Cc1c2oc3c(C)ccc(C(=O)[*:2])c3nc-2c(C(=O)[*:1])c(N)c1=O; NMeV = CN[CH](C(=O)O)C(C)C; Sar = CNCC(=O)O
Below: a set of entries, each annotated with reported growth inhibition.
Give just the numeric value; % need not be written.

# example entries with known answers
S=c1sc2ccccc2n1CCNc1ccccc1 : 7
CN=C(N)N/N=C(\c1ccccc1)c1ccc(Br)cc1 : 18
CCN(CC)c1ccc(/C=C\C(=O)c2ccc(NC(C)=O)cc2)cc1 : -11
Cc1c(O)ccc(SC#N)c1C : 29
CCOS(=O)(=O)CC(C)(C)C : -1

Query: Look up and state reported growth inhibition for O=C(CO)NCCO
Response: 5

Query: // Input: O=C1C(=O)c2cc([N+](=O)[O-])ccc2-c2ccccc21 . Output its growth inhibition only.
Response: 19

Query: Quote growth inhibition reported for CC(C)NC(=O)C(C)O (stereo unspecified) please.
Response: 2

Query: Complete the entry with growth inhibition for COC(=O)[C@]1(C)CCC[C@]2(C)c3ccc(C(C)C)cc3C(=O)[C@@H](Br)[C@@H]12
Response: -12

Query: Tell me growth inhibition reported for CCOC(=O)C1=C(C(=O)c2ccccc2)C(c2cccc([N+](=O)[O-])c2)C(C(=O)c2ccccc2)=C(C(=O)OCC)N1
Response: -9

Query: Let me know recorded growth inhibition for O=C(O)c1ccc(-c2ccccc2)cc1 , thanks.
Response: -1

Query: Check the records and state growth inhibition for CN=C(N)N/N=C(\C)c1ccc2c(c1)Cc1ccccc1-2
Response: 42

Query: Find the measured growth inhibition of CCC(C)C1NC(=O)C(NC(=O)c2c3nc4c(C(=O)NC5C(=O)NC(C(C)CC)C(=O)N6CCCC6C(=O)N(C)CC(=O)N(C)C(C(C)C)C(=O)OC5C)ccc(C)c4oc-3c(C)c(=O)c2N)C(C)OC(=O)C(C(C)C)N(C)C(=O)CN(C)C(=O)C2CCCN2C1=O (stereo unspecified) (I: TIP[Sar][NMeV] / II: TIP[Sar][NMeV]; ester I:1-I:C, II:1-II:C; linker I:N-II:N via Actinocin(1to9); configuration not given here) and report it.
Response: 38

Query: Return the recorded growth inhibition value; entry: CC(=O)C1Cc2ccccc2C1=O (stereo unspecified)
Response: 1

Query: Supply measured growth inhibition of Fc1cccc(F)c1C1SCc2nc3cc4ccccc4cc3n21 (stereo unspecified) in your reply.
Response: 27

Query: For CC(C)(C)c1ccc(O)c(-c2ccccc2)c1 , write its growth inhibition.
Response: -8
